B1: library; numbered along this chain (parent)
chain: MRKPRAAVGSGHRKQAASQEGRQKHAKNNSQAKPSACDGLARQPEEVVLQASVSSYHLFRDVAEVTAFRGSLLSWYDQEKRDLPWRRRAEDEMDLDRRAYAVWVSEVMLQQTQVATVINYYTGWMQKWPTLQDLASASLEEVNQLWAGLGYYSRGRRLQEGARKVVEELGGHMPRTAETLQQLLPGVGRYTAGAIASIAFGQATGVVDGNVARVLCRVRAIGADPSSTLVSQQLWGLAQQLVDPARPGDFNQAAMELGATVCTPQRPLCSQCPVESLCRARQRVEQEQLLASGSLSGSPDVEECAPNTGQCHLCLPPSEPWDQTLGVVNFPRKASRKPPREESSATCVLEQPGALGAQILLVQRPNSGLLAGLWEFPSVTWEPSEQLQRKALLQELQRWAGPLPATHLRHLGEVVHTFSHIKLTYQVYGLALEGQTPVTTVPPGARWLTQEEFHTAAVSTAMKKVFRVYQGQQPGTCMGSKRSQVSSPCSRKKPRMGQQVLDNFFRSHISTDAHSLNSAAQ

- Variants of: B1
- Test Details: 8OG:A repair function score (normalized; synonymous = 0, nonsense = -1) (normalized log-likelihood score); higher = more repair activity (WT-like);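 note: cells sorted at 72 h after reporter transfection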
- Assay Setup: with 8OG:A DNA repair reporter (GFP) in HEK-293 MUTYH KO cells
# cutoff -0.03 applies to 8OG:A repair function score; >= gives 1, < gives -1

Observe how each entry below is paired with its result.
[
  {
    "Sequence Variant": "Q43W",
    "Assigned Category": -1
  },
  {
    "Sequence Variant": "W381Y",
    "Assigned Category": 1
  }
]

Problem: Identify whether the reported 8OG:A repair function score of the following variant is -0.03 or greater: V104M
Result: -1
